Molecular target: T1, lecithin:cholesterol acyltransferase (LCAT), purified from human plasma (human, UniProt P04180 25-440)
T1 sequence (looked up): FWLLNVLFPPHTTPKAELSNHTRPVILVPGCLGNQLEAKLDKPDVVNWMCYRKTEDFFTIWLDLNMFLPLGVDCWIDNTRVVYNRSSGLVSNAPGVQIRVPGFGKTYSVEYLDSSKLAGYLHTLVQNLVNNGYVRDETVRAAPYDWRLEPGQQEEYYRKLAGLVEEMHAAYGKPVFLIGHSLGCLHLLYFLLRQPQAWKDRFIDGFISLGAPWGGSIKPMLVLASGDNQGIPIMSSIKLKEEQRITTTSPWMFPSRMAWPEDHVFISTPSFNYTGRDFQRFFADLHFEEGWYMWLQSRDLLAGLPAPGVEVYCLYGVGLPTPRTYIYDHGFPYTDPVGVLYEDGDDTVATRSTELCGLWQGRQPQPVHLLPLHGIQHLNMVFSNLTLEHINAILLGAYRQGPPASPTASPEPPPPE
Test: cell-based or functional assay
Non-standard residues stand in square brackets, D forms with d. No end group written: not given here. Aib = CC(C)(N)C(=O)O

binder	ACTIVITY (%) LCAT
Ac-PLLDLFKELLEELKQKLK-NH2 [peptide 201]	74
PVLDLFENLLERLLDALQKKLK [peptide 159]	28
PVLDEFRELLKE[Aib]LEALKQKLK [peptide 68]	14
Ac-AVLDLFRELLEELKQKLK-NH2 [peptide 203]	66
